FYI, the data here is from patent US20250368651A1.

# system: DNA S16 […]
# experimentNotes: FP binding assay, 18-nt DNA S16
# Method: All synthetic DNA and RNA oligomers were purchased from Integrated DNA Technologies and reconstituted in nuclease-free water (Invitrogen #AM9932) at 1 mM. The concentration of the oligonucleotides at ˜0.1 mM was calibrated with the A260 value measured by a NanoDrop ND-1000 (Thermo, Waltham, MA, USA) and the predicted extinction coefficient (http://www.oligoevaluator.com) using Lamber-Beer's Law. […]
reportedProperty: Kd (µM)
Write it as a number; the unit µM goes unstated.

Bench note, DNA S16 […]: entry CCN1CCN(c2ccc3cc(-c4cn5cc(C)nc(C)c5n4)c(=O)oc3c2)C[C@@H]1C , its Kd = 48.9

* * *

# system: DNA S6 […]
# experimentNotes: FP binding assay, 18-nt DNA S6
reportedProperty: Kd

GET /value?item= CCN1CCN(c2ccc3cc(-c4cn5cc(C)nc(C)c5n4)c(=O)oc3c2)C[C@@H]1C &field=Kd returns 33.3 µM

* * *

# system: RNA Seq7 UUAAGGAAGGU
# experimentNotes: FP binding assay, RNA Seq7
# reportedConditions: Seq 7 UUAAGGAAGGU; 0.5 μM SMN-C2
reportedProperty: Kd

molecule CCN1CCN(c2ccc3cc(-c4cn5cc(C)nc(C)c5n4)c(=O)oc3c2)C[C@@H]1C , Kd observed: 42.3 µM

* * *

# system: DNA S18 […]
# experimentNotes: FP binding assay, 18-nt DNA S18
reportedProperty: Kd

Note to self: Kd recorded for CCN1CCN(c2ccc3cc(-c4cn5cc(C)nc(C)c5n4)c(=O)oc3c2)C[C@@H]1C was > 50 µM

* * *

# system: DNA S2 […]
# experimentNotes: FP binding assay, 18-nt DNA S2
# Experimental: All synthetic DNA and RNA oligomers were purchased from Integrated DNA Technologies and reconstituted in nuclease-free water (Invitrogen #AM9932) at 1 mM. The concentration of the oligonucleotides at ˜0.1 mM was calibrated with the A260 value measured by a NanoDrop ND-1000 (Thermo, Waltham, MA, USA) and the predicted extinction coefficient (http://www.oligoevaluator.com) using Lamber-Beer's Law. […]
reportedProperty: Kd (µM)
Respond with the bare value in µM.

Fill in: DNA S2 […] Kd for CCN1CCN(c2ccc3cc(-c4cn5cc(C)nc(C)c5n4)c(=O)oc3c2)C[C@@H]1C = 20.2

* * *

# experimentNotes: in vitro
# reportedConditions: human
# Lookup of reported CC50 keyed by entry
Report the value in µM with no unit label.

These recorded examples may help you get a feel for the data.
compound=O=c1oc2cc(N3CCNCC3)ccc2cc1-c1ccc2ncccc2c1 reportedproperty=CC50 quantityunit=µM valueobserved=1.8
compound=O=c1oc2cc(N3CCNCC3)ccc2cc1-c1cn2cc(Cl)ccc2n1 reportedproperty=CC50 quantityunit=µM valueobserved=11.6
compound=COc1ccn2cc(-c3cc4ccc(N5CCNCC5)cc4oc3=O)nc2c1 reportedproperty=CC50 quantityunit=µM valueobserved=3.6

Notebook: O=c1oc2cc(N3CCNCC3)ccc2cc1-c1cn2cc(F)ccc2n1 , CC50 read as 4.7

* * *

# system: DNA S3 […]
# experimentNotes: FP binding assay, 18-nt DNA S3
reportedProperty: pKd
Please report pKd as the negative decimal logarithm of the molar concentration, giving only the number.

Looking up CCN1CCN(c2ccc3cc(-c4cn5cc(C)nc(C)c5n4)c(=O)oc3c2)C[C@@H]1C [SMN-C2] , I found its pKd recorded as 4.66
